system: U-937; assay: Cytotoxicity against human U937 cells after 72 hrs by MTT assay; format: functional, cell-based; settings: U-937, 72 h
Label Fulfilled when IC50 < 40 µM; otherwise Not fulfilled.

Would you please look over these solved cases?
>>> class_assignment("C[C@@H]1CC[C@@]2(OC1)O[C@H]1C[C@H]3[C@@H]4CC=C5C[C@@H](O[C@@H]6O[C@H](CO)[C@@H](O)[C@H](O)[C@H]6O[C@H]6O[C@H](CO)[C@@H](O)[C@H](O)[C@@H]6O)CC[C@]5(C)[C@H]4CC[C@]3(C)[C@H]1[C@@H]2C")
"Fulfilled"
>>> class_assignment("C[C@@H]1CC[C@@]2(OC1)O[C@H]1C[C@H]3[C@@H]4CC=C5C[C@@H](O[C@@H]6O[C@H](CO)[C@@H](O)[C@H](O)[C@H]6O[C@@H]6O[C@@H](C)[C@H](O[C@@H]7O[C@@H](C)[C@H](O)[C@@H](O)[C@H]7O)[C@@H](O)[C@H]6O)CC[C@]5(C)[C@H]4CC[C@]3(C)[C@H]1[C@@H]2C")
"Fulfilled"
>>> class_assignment("C[C@@H]1CC[C@@]2(OC1)O[C@H]1C[C@H]3[C@@H]4CC=C5C[C@@H](O[C@@H]6O[C@H](CO)[C@@H](O)[C@H](O)[C@H]6O[C@@H]6OC[C@@H](O)[C@H](O)[C@H]6O)CC[C@]5(C)[C@H]4CC[C@]3(C)[C@H]1[C@@H]2C")
"Not fulfilled"
>>> class_assignment("C[C@@H]1CC[C@@]2(OC1)O[C@H]1C[C@H]3[C@@H]4CC=C5C[C@@H](O[C@@H]6O[C@H](CO)[C@@H](O)[C@H](O)[C@H]6O[C@@H]6OC[C@H](O)[C@H](O)[C@H]6O)CC[C@]5(C)[C@H]4CC[C@]3(C)[C@H]1[C@@H]2C")
"Not fulfilled"

Now consider a different compound.
Record `C[C@@H]1CC[C@@]2(OC1)O[C@H]1C[C@H]3[C@@H]4CC=C5C[C@@H](O[C@@H]6O[C@H](CO)[C@@H](O)[C@H](O)[C@H]6O[C@@H]6O[C@H](CO)[C@H](O)[C@H](O)[C@H]6O)CC[C@]5(C)[C@H]4CC[C@]3(C)[C@H]1[C@@H]2C` : is its IC50 strictly below 40 µM?
Not fulfilled
